Source: ChEMBL document CHEMBL1909046

- Test System: Mitogen-activated protein kinase 1 (Homo sapiens, UniProt P28482)
- Sequence (P28482 whole entry): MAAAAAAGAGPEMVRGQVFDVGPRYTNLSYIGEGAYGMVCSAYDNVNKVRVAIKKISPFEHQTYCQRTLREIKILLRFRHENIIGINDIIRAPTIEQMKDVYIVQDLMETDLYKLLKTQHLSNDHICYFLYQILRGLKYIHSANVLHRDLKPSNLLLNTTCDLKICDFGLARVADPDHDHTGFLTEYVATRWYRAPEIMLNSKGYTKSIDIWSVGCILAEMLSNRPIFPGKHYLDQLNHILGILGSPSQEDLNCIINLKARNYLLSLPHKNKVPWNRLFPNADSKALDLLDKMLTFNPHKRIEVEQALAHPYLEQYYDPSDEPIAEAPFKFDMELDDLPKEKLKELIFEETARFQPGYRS
- Measurement Protocol: DRUGMATRIX: Protein Serine/Threonine Kinase, ERK2 enzyme inhibition (substrate: Myelin Basic Protein)
- Parameters: species or system Escherichia coli
- Measurement Context: Not Active = under 50% inhibition at 10 µM; read-out: IC50
Each entry below carries its reported pIC50.
In plain terms, pIC50 is the concentration in mol/L turned into minus its base-10 logarithm.

Would you please look over these solved cases?
Compound	pIC50
CCCCCC[C@H]1C(=O)O[C@H](C)[C@H](NC(=O)c2cccc(NC=O)c2O)C(=O)O[C@@H](C)[C@@H]1OC(=O)CC(C)C [ANTIMYCIN A]	5.67
CC1=C(CC(=O)O)c2cc(F)ccc2/C1=C\c1ccc(S(C)(=O)=O)cc1	4.86
O=C(/C=C/c1ccc(O)c(O)c1)OCCc1ccccc1	6.16
COc1cc(C(=O)NS(=O)(=O)c2ccccc2C)ccc1Cc1cn(C)c2ccc(NC(=O)OC3CCCC3)cc12	6.27

Now look at this entry.
Tested on Mitogen-activated protein kinase 1 (Homo sapiens, UniProt P28482), the item CCc1oc2ccccc2c1C(=O)c1cc(Br)c(O)c(Br)c1 showed pIC50 equal to 5.71
